# Test system: MDA-MB-231 breast
# assay.info: NCI-60 one-dose screen, 48 h (100 = growth as untreated, 0 = no growth, -100 = all killed)
# settings: 10 µM unless noted
# Method: Cells are grown in 96 well plates and exposed to the test compound for 48 hours. Compounds are tested at a single concentration, which is 10^-5 M for most compounds. The reported endpoint is percent growth (GI% or GIPRCNT), where numbers from 0 - 100% represent growth inhibition, and numbers from -100% - 0 represent cell death. For example, a value of 40 represents 60% growth inhibition. A value of 0 means no net growth occurred over the course of the experiment. […]
The panel holds about 83,000 compounds, 20% with a hit somewhere; the sample as a whole holds those more often.
Rule: measured growth below 50% gets TRUE; anything equal to or greater than 50% gets FALSE.

Consider the molecule CCN(CC)CCCNCc1cc(-c2ccccc2)nc2cc(Cl)ccc12 . Is its growth strictly less than 50%?
TRUE

Consider the molecule O=C1CCCc2nc3sc4c(=O)n(-c5ccccc5Cl)nnc4c3cc21 . Is its growth strictly less than 50%?
FALSE

Consider the molecule COc1ccc(NC(=O)c2ccc(C(=O)Nc3ccc(OC)cc3OC)cc2)c(OC)c1 . Is its growth strictly less than 50%?
FALSE

Consider the molecule C=C(C)[C@@H]1CC[C@]2(CO)CC[C@]3(C)[C@H](CC[C@@H]4[C@@]5(C)CCC(NCCc6ccc(O)cc6)C(C)(C)[C@@H]5CC[C@]43C)[C@@H]12 (some centres not stated) . Is its growth strictly less than 50%?
TRUE

Consider the molecule CC/C(Cc1ccccc1)=C(\c1ccc(OCCN2CCCCCC2)cc1)c1ccc(OC(=O)NCc2ccccc2)cc1 . Is its growth strictly less than 50%?
FALSE

Consider the molecule C[C@@H]1CC[C@@]2(OC1)O[C@H]1C[C@H]3[C@@H]4CC=C5C[C@@H](O[C@@H]6O[C@H](CO)[C@@H](O[C@@H]7O[C@@H](CO)[C@H](O)[C@H]7O)[C@H](O)[C@H]6O[C@@H]6O[C@@H](C)[C@H](O)[C@@H](O)[C@H]6O)CC[C@]5(C)[C@H]4CC[C@]3(C)[C@H]1[C@@H]2C . Is its growth strictly less than 50%?
TRUE

Consider the molecule C=CCN=C(N)SCCCCCCSC(N)=NCC=C . Is its growth strictly less than 50%?
FALSE

Consider the molecule NC(=S)N/N=C/c1cn(-c2ccccc2)nc1-c1cc2ccccc2oc1=O . Is its growth strictly less than 50%?
TRUE

Consider the molecule N#Cc1c(-c2ccccc2)c(C#N)c2c(C#N)c(N)nn2c1N . Is its growth strictly less than 50%?
TRUE

Consider the molecule CN1CCN(Cc2cc(NC(=O)c3cccc(C#Cc4cccc5[nH]nc(N)c45)c3)cc(C(F)(F)F)c2)CC1 . Is its growth strictly less than 50%?
TRUE

Consider the molecule CCNC(=O)Oc1ccc(/C(=C(/C)Cc2ccc(OC)cc2)c2ccc(OCCN3CCCCCC3)cc2)cc1 . Is its growth strictly less than 50%?
FALSE

Consider the molecule CCN(CC)c1ccc(/C=C\c2cc(C)c3cc(C)ccc3n2)cc1 . Is its growth strictly less than 50%?
FALSE

Consider the molecule COc1cc2oc(-c3cccc(NC(=O)c4ccc5c(c4)OCO5)c3)cc(=O)c2c(OC)c1OC . Is its growth strictly less than 50%?
FALSE

Consider the molecule CN(Cc1cnc2nc(N)nc(N)c2n1)c1c(Cl)cc(C(=O)NC(CCC(=O)O)C(=O)O)cc1Cl (configuration not stated) . Is its growth strictly less than 50%?
FALSE

Consider the molecule CC(C)(C)C(=O)/C=C/c1ccc([N+](=O)[O-])cc1 . Is its growth strictly less than 50%?
FALSE

Consider the molecule Cc1ncc(C(=O)Nc2ccc(CN3CCN(C)CC3)c(C(F)(F)F)c2)cc1C#Cc1cnc(N)c2cnccc12 . Is its growth strictly less than 50%?
TRUE

Consider the molecule N/C(=N\c1nc2ccccc2s1)NC(=NC1CCCCC1)NC1CCCCC1 . Is its growth strictly less than 50%?
TRUE
